Origin of values: paper PMC8703108

target: thrombin (THR, FIIα) (Homo sapiens, UniProt P00734); construct: human recombinant THR; test: chromogenic substrate S-2238 assay; affinity ultrafiltration LC-MS hit
Here, each record is paired with measured IC50 data.

{"columns": ["MOLECULE", "IC50"],
 "data": [
  ["CC(=O)OC(CCc1ccc(O)cc1)CC(CCc1ccc(O)c(O)c1)OC(C)=O (stereo not drawn)", "654 µM"],
  ["CC(=O)OC(CCc1ccc(O)c(O)c1)CC(CCc1ccc(O)c(O)c1)OC(C)=O (stereo not drawn)", "358 µM"],
  ["CC(=O)OC(CCc1ccc(O)cc1)CC(O)CCc1ccc(O)cc1 (stereo not drawn)", "9.92 µM"]
]}
